Answer each item with its documented Antiviral EC50 (ug/ml) Davis strain CMV.
# Tested on: Davis strain CMV
# Test Protocol: Reduction of CMV-induced cytopathicity in HEL cells
# Assay type: cell-based, human cytomegalovirus (HCMV)
# Condition Set: HEL cells, virus-induced cytopathicity after seven days
# Method: Confluent HEL cells grown in […] microtiter plates were inoculated with CMV at an input of 100 PFU (plaque forming units) per well. After a one to two hour incubation period, residual virus was removed and the infected cells were further incubated with MEM (Minimal Essential Medium) (supplemented with 2% inactivated Fetal Calf Serum (FCS), […], and 0.3% sodium bicarbonate) containing varying concentrations of the test compounds. […]
Hi! Could you send only the number? It should be in µg/mL, unit omitted.

[Q] Name the reported Antiviral EC50 (ug/ml) Davis strain CMV value associated with the compound Nc1ccn(C[C@@H](CO)OCP(=O)(O)O)c(=O)n1 [S-HPMPC, reference compound]
[A] 0.3

[Q] Name the reported Antiviral EC50 (ug/ml) Davis strain CMV value associated with the compound "CC(C)Cc1ccc(CS(=O)(=O)c2cccc[n+]2[O-])cc1"
[A] 3.2

[Q] Name the reported Antiviral EC50 (ug/ml) Davis strain CMV value associated with the compound "O=S(=O)(Cc1ccccc1Cl)c1cccc[n+]1[O-]"
[A] 5.0

[Q] Name the reported Antiviral EC50 (ug/ml) Davis strain CMV value associated with the compound Cc1ccc(C)c(C(C)[S+]([O-])c2cccc[n+]2[O-])c1 (stereo not drawn)
[A] 4.3

----------
# System: MOLT-3 cells
# Test Protocol: Toxicity in MOLT-3 cells, changes in cell morphology by microscopic examination
# Assay type: cell-based, human
# Condition Set: Exp. 1
Answer each item with its documented MIC (concentration causing minimal changes in cell morphology).
Hi! Could you send only the number? It should be in μg/ml, unit omitted.

[Q] Give MOLT-3 cells MIC (concentration causing minimal changes in cell morphology) for O=S(=O)(Cc1ccccc1)c1cccc[n+]1[O-] [Compound 6, 2-(Benzylsulfonyl)-pyridine-N-oxide]
[A] 100

[Q] Give MOLT-3 cells MIC (concentration causing minimal changes in cell morphology) for [O-][n+]1ccccc1[S+]([O-])Cc1ccccc1 (stereo not shown) [Compound 5, 2-(Benzylsulfinyl)-pyridine-N-oxide]
[A] 100

[Q] Give MOLT-3 cells MIC (concentration causing minimal changes in cell morphology) for "Cc1ccc(C)c(CS(=O)(=O)c2cccc[n+]2[O-])c1"
[A] 50

----------
# Test system: Davis strain CMV
# Test Protocol: Reduction of CMV-induced cytopathicity in HEL cells
# Assay type: cell-based, human cytomegalovirus (HCMV)
# Condition Set: HEL cells, virus-induced cytopathicity after seven days
Attribute Measured: Antiviral EC50 (ug/ml) Davis strain CMV (µg/mL)
Hi! Could you send only the number? It should be in µg/mL, unit omitted.

[Q] Name the reported Antiviral EC50 (ug/ml) Davis strain CMV value associated with the molecule COc1ccc(C)cc1CS(=O)(=O)c1cccc[n+]1[O-] [Compound 30]
[A] 37.0

[Q] Name the reported Antiviral EC50 (ug/ml) Davis strain CMV value associated with the molecule Cc1ccc[n+]([O-])c1S(=O)(=O)Cc1c(Cl)cccc1Cl [Compound 139]
[A] 43.0

[Q] Name the reported Antiviral EC50 (ug/ml) Davis strain CMV value associated with the molecule COc1ccc(C=C(C#N)Sc2cccc[n+]2[O-])cc1 [Compound 159]
[A] 10.0

[Q] Name the reported Antiviral EC50 (ug/ml) Davis strain CMV value associated with the molecule Cc1cc(CS(=O)(=O)c2cccc[n+]2[O-])ccc1[N+](=O)[O-] [Compound 66]
[A] 5.0

[Q] Name the reported Antiviral EC50 (ug/ml) Davis strain CMV value associated with the molecule O=S(=O)(Cc1cccs1)c1cccc[n+]1[O-] [Compound 8]
[A] 11.0

[Q] Name the reported Antiviral EC50 (ug/ml) Davis strain CMV value associated with the molecule Cc1ccc(C[S+]([O-])c2cccc[n+]2[O-])cc1 (stereo not drawn) [Compound 91]
[A] 34.5

----------
# Test system: HIV-2 (ROD)
# Test Protocol: Inhibition of HIV-2 syncytium formation in CEM cells
# Assay type: cell-based
# Condition Set: CEM cells, syncytium formation, day four post infection
Attribute Measured: EC50 (ug/ml) HIV-2 (µg/mL)
Hi! Could you send only the number? It should be in µg/mL, unit omitted.

[Q] Name the reported EC50 (ug/ml) HIV-2 value associated with the compound "Cc1ccc(CS(=O)(=O)c2cccc[n+]2[O-])cc1"
[A] 10.0

[Q] Name the reported EC50 (ug/ml) HIV-2 value associated with the compound Cc1ccc(C)c(C[S+]([O-])c2ccc(Cl)c[n+]2[O-])c1 (stereo not shown)
[A] 3.0

[Q] Name the reported EC50 (ug/ml) HIV-2 value associated with the compound "CC(C)Cc1ccc(CS(=O)(=O)c2cccc[n+]2[O-])cc1"
[A] 2.6

[Q] Name the reported EC50 (ug/ml) HIV-2 value associated with the compound "Cc1ccc([N+](=O)[O-])c(CS(=O)(=O)c2cccc[n+]2[O-])c1"
[A] 5.0

[Q] Name the reported EC50 (ug/ml) HIV-2 value associated with the compound "COc1ccc(Br)c(CS(=O)(=O)c2cccc[n+]2[O-])c1"
[A] 9.0

[Q] Name the reported EC50 (ug/ml) HIV-2 value associated with the compound "O=S(=O)(Cc1ccccc1I)c1cccc[n+]1[O-]"
[A] 3.4

[Q] Name the reported EC50 (ug/ml) HIV-2 value associated with the compound "O=S(=O)(Cc1ccc(Cl)cc1)c1cccc[n+]1[O-]"
[A] 9.5

[Q] Name the reported EC50 (ug/ml) HIV-2 value associated with the compound "COc1ccc(CS(=O)(=O)c2cccc[n+]2[O-])cc1"
[A] 14.0

[Q] Name the reported EC50 (ug/ml) HIV-2 value associated with the compound "Cc1cc[n+]([O-])c(S(=O)(=O)Cc2ccc(Cl)cc2)c1"
[A] 11.0

----------
Answer each item with its documented EC50.
# Test system: HIV-1 (IIIB)
# Test Protocol: microbe, parasite or virus in culture
# Format: cell-based
# Condition Set: Human immunodeficiency virus 1, IIIB, CCRF-CEM; CEM cells, syncytium formation, day four post infection; read-out: EC50 (ug/ml) HIV-1
Hi! Could you send only the number? It should be in µg/mL, unit omitted.

[Q] Name the reported EC50 value associated with the compound CCC(c1cc(C)ccc1C)S(=O)(=O)c1c(C)ccc[n+]1[O-] (stereo not drawn)
[A] 1.4

[Q] Name the reported EC50 value associated with the compound Cc1ccc(C)c(C(C)S(=O)(=O)c2ccc(C)c[n+]2[O-])c1 (stereo not drawn)
[A] 5.5

[Q] Name the reported EC50 value associated with the compound CCc1cccc2c(C)cc(S(=O)(=O)C(C)c3ccccc3)nc12 (stereo not drawn)
[A] 0.65

[Q] Name the reported EC50 value associated with the compound "O=S(=O)(Cc1c(Cl)cccc1Cl)c1cccc[n+]1[O-]"
[A] 9

[Q] Name the reported EC50 value associated with the compound "Cc1ccccc1CS(=O)(=O)c1cccc[n+]1[O-]"
[A] 11

----------
# Tested on: Davis strain CMV
# Test Protocol: Reduction of CMV-induced cytopathicity in HEL cells
# Format: cell-based, human cytomegalovirus (HCMV)
# Condition Set: HEL cells, virus-induced cytopathicity after seven days
Answer each item with its documented Antiviral EC50 (ug/ml) Davis strain CMV.
Hi! Could you send only the number? It should be in µg/mL, unit omitted.

[Q] Give Davis strain CMV Antiviral EC50 (ug/ml) Davis strain CMV for Cc1ccc(C)c(C[S+]([O-])c2c(C)ccc[n+]2[O-])c1 (centres unmarked) [Compound 70]
[A] 11.0

[Q] Give Davis strain CMV Antiviral EC50 (ug/ml) Davis strain CMV for Cc1ccc(C)c(C[S+]([O-])c2ccc(Cl)c[n+]2[O-])c1 (centres unmarked) [Compound 153]
[A] 11.5

[Q] Give Davis strain CMV Antiviral EC50 (ug/ml) Davis strain CMV for O=S(=O)(Cc1ccccc1F)c1cccc[n+]1[O-] [Compound 22]
[A] 7.0

[Q] Give Davis strain CMV Antiviral EC50 (ug/ml) Davis strain CMV for Cc1cccc(CS(=O)(=O)c2cccc[n+]2[O-])c1 [Compound 27]
[A] 16.0

[Q] Give Davis strain CMV Antiviral EC50 (ug/ml) Davis strain CMV for Cc1ccc(C)c(C[S+]([O-])c2cccc[n+]2[O-])c1 (centres unmarked) [Compound 3]
[A] 36.0

----------
Answer each item with its documented EC50 (ug/ml) HIV-2.
# Test system: HIV-2 (ROD)
# Test Protocol: Inhibition of HIV-2 syncytium formation in CEM cells
# Type: cell-based
# Condition Set: CEM cells, syncytium formation, day four post infection
Hi! Could you send only the number? It should be in µg/mL, unit omitted.

[Q] Name the reported EC50 (ug/ml) HIV-2 value associated with the molecule "Cc1cccc(CS(=O)(=O)c2cccc[n+]2[O-])c1"
[A] 9.0

[Q] Name the reported EC50 (ug/ml) HIV-2 value associated with the molecule Cc1ccc(C)c(C(C)S(=O)(=O)c2cccc(Cl)[n+]2[O-])c1 (centres unmarked)
[A] 2.4

[Q] Name the reported EC50 (ug/ml) HIV-2 value associated with the molecule "COc1ccc(CS(=O)(=O)c2cccc[n+]2[O-])cc1OC"
[A] 15.0

[Q] Name the reported EC50 (ug/ml) HIV-2 value associated with the molecule "COc1ccc(OC)c(CS(=O)(=O)c2cccc[n+]2[O-])c1"
[A] 35.0

[Q] Name the reported EC50 (ug/ml) HIV-2 value associated with the molecule "O=S(=O)(Cc1ccccc1F)c1cccc[n+]1[O-]"
[A] 6.3

[Q] Name the reported EC50 (ug/ml) HIV-2 value associated with the molecule [O-][n+]1ccccc1[S+]([O-])Cc1ccc2c(c1)OCO2 (centres unmarked)
[A] 12.0

[Q] Name the reported EC50 (ug/ml) HIV-2 value associated with the molecule "O=S(=O)(Cc1ccccc1Cl)c1cccc[n+]1[O-]"
[A] 7.0

[Q] Name the reported EC50 (ug/ml) HIV-2 value associated with the molecule Cc1ccc(N)cc1C(C)S(=O)(=O)c1cccc[n+]1[O-] (centres unmarked)
[A] 41.0

[Q] Name the reported EC50 (ug/ml) HIV-2 value associated with the molecule O=S(=O)(c1cccc[n+]1[O-])C(Cl)c1ccccc1 (centres unmarked)
[A] 2.5

[Q] Name the reported EC50 (ug/ml) HIV-2 value associated with the molecule Cc1ccc(C[S+]([O-])c2cccc[n+]2[O-])cc1C (centres unmarked)
[A] 2.8

[Q] Name the reported EC50 (ug/ml) HIV-2 value associated with the molecule "Cc1ccc(C)c(CS(=O)(=O)c2ccc(Cl)c[n+]2[O-])c1"
[A] 2.6
